System: Caco-2
Assay: cell viability relative to DMSO; higher = less toxic
Conditions: 72 h; 1 nM
Assignment: determine reported cell viability for the given compounds.
# value in %; strip the unit string

Give cell viability for NC(=O)N1c2ccccc2CC(O)c2ccccc21 (stereo not drawn) [licarbazepine] 98.3

Give cell viability for COc1ccc(-n2c(SCc3nc(-c4ccc(C)cc4)no3)nnc2-c2ccncc2)cc1 [JW-74] 111

Give cell viability for Cc1cc(NC(=O)C(c2ccccc2)N2CCCc3ccccc32)no1 (stereo not drawn) [CIM-0216] 97.1

###

Tested on: U2OS
Assay: cell viability relative to DMSO; higher = less toxic
Conditions: 72 h; 1 nM
outcomeMeasure: cell viability (%)
# value in %; strip the unit string

Give cell viability for CC1(C)C(=O)N(c2ccc(C#N)c(C(F)(F)F)c2)C(=O)N1CCCCO 99.9

Give cell viability for O=C(Cc1cccc(OC(F)(F)F)c1)Nc1ccc(CCCCc2nnc(NC(=O)Cc3ccccn3)s2)nn1 [CB-839] 99.6

Give cell viability for C[C@@H](O)[C@H]1C(=O)N2C(C(=O)[O-])=C(SC3Cn4cnc[n+]4C3)[C@H](C)[C@H]12 (stereo partly drawn) [biapenem] 98.6

Give cell viability for CCCCCCCC/C=C\CCCCCCCC(=O)NCCc1ccc(O)c(O)c1 [OLDA] 101

Give cell viability for FCc1ccc(OCCOc2ccc(Cl)cc2Cl)c(Cl)n1 100

Give cell viability for CC(=O)c1ccc2c(c1)N(CCCN1CCN(CCO)CC1)c1ccccc1S2 [acetophenazine] 93.6

Give cell viability for CC[C@]12CCCN3CCc4c(n(c5ccccc45)C(=O)C1)[C@@H]32 [vinburnine] 94.2

Give cell viability for COc1c2occc2c(OC)c2c(=O)cc(C)oc12 [khellin] 103

Give cell viability for O=C(O)c1ccc(-c2c[nH]c3ncc(-c4ccccc4)cc23)cc1C1CCCC1 96.4

Give cell viability for C=CC1=C(C(=O)O)N2C(=O)[C@@H](NC(=O)/C(=N\O)c3csc(N)n3)[C@H]2SC1 [cefdinir] 94

Give cell viability for CN1CCN(c2ccc3ccccc3n2)CC1 [N-methylquipazine] 101

Give cell viability for O=c1[nH]c2ccccc2n1CCCN1CCC(n2c(=O)[nH]c3cc(Cl)ccc32)CC1 [domperidone] 103

Give cell viability for O=C(Nc1cnccc1Cl)N1CCN(Cc2ccc3c(c2)OC(F)(F)O3)CC1 99.8

###

Test system: Caco-2
Test: cell viability relative to DMSO; higher = less toxic
Conditions: 72 h; 100 nM
Assignment: determine reported cell viability for the given compounds.
# value in %; strip the unit string

Give Caco-2 cell viability for the following compound: O=C1c2cccnc2OC[C@@H]2CCCN12 100

Give Caco-2 cell viability for the following compound: Cc1ccc(O)c(N=Nc2ccccc2)n1 98.6

Give Caco-2 cell viability for the following compound: COc1cc2c(cc1OC(C)C)[C@H](c1ccc(Cl)cc1)N(c1ccc(N(C)C[C@H]3CC[C@H](N4CCN(C)C(=O)C4)CC3)cc1)C(=O)C2 93.6

###

System: Calu-3
Experiment: cell viability relative to DMSO; higher = less toxic
Conditions: 72 h; 10 nM
outcomeMeasure: cell viability (%)
# value in %; strip the unit string

Give cell viability for Cc1ncc([N+](=O)[O-])n1CCO [metronidazole] 95.9

Give cell viability for N[C@H](Cc1c[nH]cn1)C(=O)O [copper-histidine] 94.4

Give cell viability for COc1cc2nccc(Oc3ccc(NC(=O)NC4CC4)c(Cl)c3)c2cc1C(N)=O [lenvatinib] 98.1

Give cell viability for O=C(CBr)N1CC([N+](=O)[O-])([N+](=O)[O-])C1 [RRx-001] 91.6

Give cell viability for CCCCC(CC)CCC(CC(C)C)OS(=O)(=O)O (configuration not stated) [sodium-tetradecyl-sulfate] 91.9

Give cell viability for CC(=C(CCOC(=O)C(C)C)SSC(CCOC(=O)C(C)C)=C(C)N(C=O)Cc1cnc(C)nc1N)N(C=O)Cc1cnc(C)nc1N (stereo in doubt) [sulbutiamine] 111

Give cell viability for O=S1(=O)CCN(CN2CCS(=O)(=O)NC2)CN1 [taurolidine] 95.2

Give cell viability for CC(C)c1onc(-c2c(Cl)cccc2Cl)c1COc1ccc(/C=C/c2cccc(C(=O)O)c2)c(Cl)c1 [GW-4064] 107

Give cell viability for C=C[C@](C)(O)CC[C@@H]1[C@@]2(C)CCCC(C)(C)[C@@H]2CC[C@@]1(C)O [sclareol] 98.7

Give cell viability for Cc1oc(-c2ccccc2)nc1CCOc1ccc(CC2SC(=O)NC2=O)c2sccc12 (configuration not stated) [edaglitazone] 102

Give cell viability for COc1ccc(-n2c(SCc3nc(-c4ccc(C)cc4)no3)nnc2-c2ccncc2)cc1 [JW-74] 106

Give cell viability for CN(C)CC[C@@](O)(c1ccccc1)c1ccccc1Cl [clofedanol] 106

###

System: U2OS
Assay: cell viability relative to DMSO; higher = less toxic
Conditions: 72 h; 10000 nM
Assignment: determine reported cell viability for the given compounds.
# value in %; strip the unit string

Give cell viability for O=C(Cc1cccc(OC(F)(F)F)c1)Nc1ccc(CCCCc2nnc(NC(=O)Cc3ccccn3)s2)nn1 [CB-839] 82

Give cell viability for O=C(c1cc(S(=O)(=O)Nc2ccccc2F)c(F)cc1Cl)N1CCN2CCC[C@@H]2C1 [ABT-639] 99.5

Give cell viability for CC(=C(CCOC(=O)C(C)C)SSC(CCOC(=O)C(C)C)=C(C)N(C=O)Cc1cnc(C)nc1N)N(C=O)Cc1cnc(C)nc1N (stereo in doubt) [sulbutiamine] 92.8

Give cell viability for CCC(c1ccccc1)c1c(O)c2ccccc2oc1=O (stereo not given) [phenprocoumon] 104

Give cell viability for Oc1c(I)cc(I)c2cccnc12 [iodoquinol] 85.2

Give cell viability for CC#C[C@]1(O)CC[C@H]2[C@@H]3CCC4=CC(=O)CCC4=C3[C@@H](c3ccc(N(C)C)cc3)C[C@@]21C [mifepristone] 91.8

Give cell viability for CCOC(=O)c1ncn2c1CN(C)C(=O)c1cc(F)ccc1-2 [flumazenil] 97.8

Give cell viability for CCC[C@@H]1CC(=O)N([C@@H](CC)C(N)=O)C1 [Brivaracetam] 99.6

Give cell viability for COC(=O)[C@H](CC(C)C)NC(=O)c1ccc(NC[C@@H](N)CS)cc1-c1cccc2ccccc12 [GGTI-298] 60.9

Give cell viability for O=S1(=O)CCN(CN2CCS(=O)(=O)NC2)CN1 [taurolidine] 98.7

Give cell viability for CN(C)NC(=O)CCC(=O)O [daminozide] 101

Give cell viability for N=C(N)NC(=O)c1cnn(-c2cccc3ncccc23)c1C1CC1 [zoniporide] 98.6

Give cell viability for C[S+](C)CC[C@H](N)C(=O)O [cabagin] 100

Give cell viability for C=CCN1C[C@H](C)N([C@H](c2ccc(C(=O)N(CC)CC)cc2)c2cccc(OC)c2)C[C@H]1C [SNC-80] 94.7

Give cell viability for C[C@H]1NCc2cc(-c3ccc4c(=O)c(C(=O)O)cn(C5CC5)c4c3OC(F)F)ccc21 [garenoxacin] 99.7

###

System: Vero E6
Test: cell viability relative to DMSO; higher = less toxic
Conditions: 72 h; 100 nM
outcomeMeasure: cell viability (%)
# value in %; strip the unit string

Give cell viability for CCC(c1ccccc1)c1c(O)c2ccccc2oc1=O (stereo not given) [phenprocoumon] 97.3

Give cell viability for CCCN1CCC[C@@H]2Cc3n[nH]cc3C[C@H]21 [quinpirol-(-)] 97.6

Give cell viability for COc1c2occc2c(OC)c2c(=O)cc(C)oc12 [khellin] 94.2

Give cell viability for NS(=O)(=O)NCCNc1nonc1/C(=N/O)Nc1ccc(F)c(Br)c1 98.2

Give cell viability for CCCCCOc1c(OC)ccc2cc(C(=O)NCc3ccc4c(c3)OCO4)c(=O)[nH]c12 [JTE-907] 94.5

Give cell viability for Cc1ccc(S(=O)(=O)NC2c3ccccc3Oc3ccccc32)cc1 [AH-7614] 99.1

Give cell viability for CC(=O)Nc1ncc([N+](=O)[O-])s1 [nithiamide] 100

Give cell viability for CC(=O)c1ccc2c(c1)N(CCCN1CCN(CCO)CC1)c1ccccc1S2 [acetophenazine] 106

Give cell viability for CCCC[C@H](NC(C)=O)C(=O)N[C@H]1CC(=O)NCCCC[C@@H](C(=O)O)NC(=O)[C@H](Cc2c[nH]c3ccccc23)NC(=O)[C@H](CCCNC(=N)N)NC(=O)[C@@H](Cc2ccccc2)NC(=O)[C@H](Cc2c[nH]cn2)NC1=O [bremelanotide] 108

Give cell viability for CC1(C)CCC(C)(C)c2cc(C3(c4ccc5cc(C(=O)O)ccc5c4)SCCS3)ccc21 96.6

Give cell viability for C[S+](C)CC[C@H](N)C(=O)O [cabagin] 85.3

Give cell viability for OCCCNc1cc(-c2ccnc(Nc3cccc(Cl)c3)n2)ccn1 81.9

Give cell viability for CCC(=O)NC[C@H](Cc1ccc(OCCc2nc(-c3ccccc3)oc2C)cc1)N/C(C)=C\C(=O)c1ccc(C(F)(F)F)cc1 [GW-6471] 96.1

Give cell viability for Cc1oc(-c2ccccc2)nc1CCOc1ccc(CC2SC(=O)NC2=O)c2sccc12 (stereo not given) [edaglitazone] 89.4

Give cell viability for COc1cc(/C=C/C(=O)CC(=O)/C=C/c2ccc(O)c(OC)c2)ccc1O [curcumin] 95.2
